The source made the active and inactive calls.
Below are molecules with their Kd as measured on Tyrosine-protein kinase ABL2 (Homo sapiens, UniProt P42684).
Sequence (P42684 whole entry): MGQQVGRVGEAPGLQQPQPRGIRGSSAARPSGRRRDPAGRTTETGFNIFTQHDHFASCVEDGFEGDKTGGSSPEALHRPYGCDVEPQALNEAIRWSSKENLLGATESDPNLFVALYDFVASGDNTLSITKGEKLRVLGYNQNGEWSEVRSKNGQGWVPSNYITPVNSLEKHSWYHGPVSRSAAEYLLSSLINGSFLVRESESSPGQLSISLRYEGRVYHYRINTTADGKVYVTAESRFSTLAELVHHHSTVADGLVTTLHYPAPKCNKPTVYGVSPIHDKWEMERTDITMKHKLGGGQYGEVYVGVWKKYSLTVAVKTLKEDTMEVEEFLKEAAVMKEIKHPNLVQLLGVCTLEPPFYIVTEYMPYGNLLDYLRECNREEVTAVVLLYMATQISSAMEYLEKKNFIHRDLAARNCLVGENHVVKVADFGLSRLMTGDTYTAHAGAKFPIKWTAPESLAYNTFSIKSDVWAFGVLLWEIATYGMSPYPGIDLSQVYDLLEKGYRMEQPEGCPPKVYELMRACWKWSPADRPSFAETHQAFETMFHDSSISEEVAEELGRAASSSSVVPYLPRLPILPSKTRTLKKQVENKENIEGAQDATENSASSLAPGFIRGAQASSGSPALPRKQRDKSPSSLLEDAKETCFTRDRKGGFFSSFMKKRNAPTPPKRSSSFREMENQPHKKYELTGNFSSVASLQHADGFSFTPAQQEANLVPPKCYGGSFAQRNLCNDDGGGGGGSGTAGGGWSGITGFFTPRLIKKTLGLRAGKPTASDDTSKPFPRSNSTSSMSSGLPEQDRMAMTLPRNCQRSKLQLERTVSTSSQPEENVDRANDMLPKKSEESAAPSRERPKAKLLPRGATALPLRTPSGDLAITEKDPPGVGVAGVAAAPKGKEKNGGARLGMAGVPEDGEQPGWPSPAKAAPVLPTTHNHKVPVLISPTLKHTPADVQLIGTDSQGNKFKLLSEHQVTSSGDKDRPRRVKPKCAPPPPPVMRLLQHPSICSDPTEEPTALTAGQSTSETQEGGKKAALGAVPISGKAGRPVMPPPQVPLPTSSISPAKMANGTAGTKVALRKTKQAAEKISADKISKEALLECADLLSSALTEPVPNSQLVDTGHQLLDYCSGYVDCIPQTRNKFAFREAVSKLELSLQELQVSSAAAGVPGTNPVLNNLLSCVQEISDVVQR

Use the examples below as a reference point.
Cc1ccc(C(=O)Nc2ccc(Oc3cc4cnn(C)c4cc3-c3cn[nH]c3)c(F)c2)c(=O)n1-c1ccc(F)cc1 | > 30 µM (inactive)
O=C(NOC[C@H](O)CO)c1ccc(F)c(F)c1Nc1ccc(I)cc1F | > 30 µM (inactive)
O=S(=O)(c1cccc2c(O)nccc12)N1CCCNCC1 [HYDROXYFASUDIL] | > 30 µM (inactive)
CCN1CCN(Cc2ccc(Nc3ncc(F)c(-c4cc(F)c5nc(C)n(C(C)C)c5c4)n3)nc2)CC1 | > 30 µM (inactive)
CNC(=O)c1cccc(-c2ccc3c(N4CCOC[C@@H]4C)nc(N4CCOC[C@@H]4C)nc3n2)c1 | > 30 µM (inactive)

Now look at this entry.
Query: Please indicate recorded Kd of `COc1cc2ncnc(Nc3ccc(O)cc3)c2cc1OC` measured with Tyrosine-protein kinase ABL2 (Homo sapiens, UniProt P42684).
Reply: > 30 µM (inactive)

====

- target.entity: Cyclin-G-associated kinase (Homo sapiens, UniProt O14976); further: in the data inactive means no Kd found up to 30 µM
- Sequence (O14976 whole entry): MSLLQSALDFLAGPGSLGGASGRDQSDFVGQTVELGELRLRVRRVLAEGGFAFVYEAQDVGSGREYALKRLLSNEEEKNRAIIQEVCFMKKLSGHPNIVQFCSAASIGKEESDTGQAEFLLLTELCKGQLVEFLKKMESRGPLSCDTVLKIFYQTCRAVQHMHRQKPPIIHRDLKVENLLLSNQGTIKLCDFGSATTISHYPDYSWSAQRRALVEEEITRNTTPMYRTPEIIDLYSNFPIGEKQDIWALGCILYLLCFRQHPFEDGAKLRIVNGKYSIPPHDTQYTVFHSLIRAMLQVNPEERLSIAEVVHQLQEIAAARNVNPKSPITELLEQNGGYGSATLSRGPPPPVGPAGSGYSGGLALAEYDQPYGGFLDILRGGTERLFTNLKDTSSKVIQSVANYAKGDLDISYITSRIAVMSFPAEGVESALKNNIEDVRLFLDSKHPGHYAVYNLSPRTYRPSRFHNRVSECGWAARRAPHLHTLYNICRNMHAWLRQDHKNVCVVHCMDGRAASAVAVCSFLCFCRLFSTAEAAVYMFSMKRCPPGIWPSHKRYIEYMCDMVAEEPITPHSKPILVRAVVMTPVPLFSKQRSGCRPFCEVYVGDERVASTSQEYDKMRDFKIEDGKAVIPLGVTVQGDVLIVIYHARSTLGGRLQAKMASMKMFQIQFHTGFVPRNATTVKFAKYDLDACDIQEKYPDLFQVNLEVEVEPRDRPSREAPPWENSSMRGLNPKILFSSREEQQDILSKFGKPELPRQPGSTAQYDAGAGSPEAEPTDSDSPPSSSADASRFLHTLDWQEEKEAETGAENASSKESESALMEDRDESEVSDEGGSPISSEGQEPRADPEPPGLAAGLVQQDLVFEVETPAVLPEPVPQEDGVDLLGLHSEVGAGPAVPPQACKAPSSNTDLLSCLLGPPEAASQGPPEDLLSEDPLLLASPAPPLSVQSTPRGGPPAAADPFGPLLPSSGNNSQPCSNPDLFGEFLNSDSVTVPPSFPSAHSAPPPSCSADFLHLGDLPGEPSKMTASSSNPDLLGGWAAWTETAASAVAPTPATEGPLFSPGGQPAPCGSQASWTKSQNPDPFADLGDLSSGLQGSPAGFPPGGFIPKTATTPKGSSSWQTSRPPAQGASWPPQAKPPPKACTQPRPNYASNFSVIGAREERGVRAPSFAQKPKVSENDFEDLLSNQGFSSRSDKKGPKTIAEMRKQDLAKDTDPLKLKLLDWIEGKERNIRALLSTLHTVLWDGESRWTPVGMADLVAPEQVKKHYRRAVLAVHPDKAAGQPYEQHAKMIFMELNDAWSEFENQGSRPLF
Active and inactive are the calls of the source.
Classes to choose from: active, inactive

C=CCn1c(=O)c2cnc(Nc3ccc(N4CCN(C)CC4)cc3)nc2n1-c1cccc(C(C)(C)O)n1 | active

Query: Record request — test call for `CCc1cc2c(cc1N1CCC(N3CCOCC3)CC1)C(C)(C)c1[nH]c3cc(C#N)ccc3c1C2=O`
Reply: active

Query: Record request — test call for COc1cc2nccc(Oc3ccc(NC(=O)C4(C(=O)Nc5ccc(F)cc5)CC4)cc3)c2cc1OC [CABOZANTINIB]
Reply: inactive

Query: Record request — test call for `COCCN1CCN(Cc2ccc(-c3n[nH]c4c3C(=O)c3c(NC(=O)NN5CCOCC5)cccc3-4)cc2)CC1`
Reply: active

Query: Record request — test call for `CCN(CCCOc1ccc2c(Nc3cc(CC(=O)Nc4cccc(F)c4)n[nH]3)ncnc2c1)CCOP(=O)(O)O`
Reply: inactive

Query: Record request — test call for `C#Cc1cccc(Nc2ncnc3cc4c(cc23)OCCOCCOCCO4)c1`
Reply: active

Query: Record request — test call for `Cc1ccc(C(=O)Nc2ccc(Oc3cc4cnn(C)c4cc3-c3cn[nH]c3)c(F)c2)c(=O)n1-c1ccc(F)cc1`
Reply: inactive

Query: Record request — test call for `C=CCN(/C=C1/C(=O)O[C@H](COC)[C@@]2(C)C1=C(O)C(=O)C1=C2[C@H](OC(C)=O)C[C@]2(C)C(=O)CC[C@@H]12)CC=C`
Reply: inactive

Query: Record request — test call for `O[C@H]1CC[C@H](Nc2ncc3nc(Nc4c(F)cc(F)cc4F)n([C@H]4CCOC4)c3n2)CC1`
Reply: active

Query: Record request — test call for `Cc1c(NC(=O)OC[C@@H]2COCCN2)cn2ncnc(Nc3ccc4c(cnn4Cc4cccc(F)c4)c3)c12`
Reply: inactive

Query: Record request — test call for `S=C(NCc1ccc2c(c1)OCO2)N1CCN(c2ncnc3c2oc2ccccc23)CC1`
Reply: inactive

====

Below: a set of entries, each annotated with reported Kd.
- target.entity: Epithelial discoidin domain-containing receptor 1 (Homo sapiens); further: in the data inactive means no Kd found up to 30 µM
- Sequence (Q08345 whole entry, the tested form may be a part): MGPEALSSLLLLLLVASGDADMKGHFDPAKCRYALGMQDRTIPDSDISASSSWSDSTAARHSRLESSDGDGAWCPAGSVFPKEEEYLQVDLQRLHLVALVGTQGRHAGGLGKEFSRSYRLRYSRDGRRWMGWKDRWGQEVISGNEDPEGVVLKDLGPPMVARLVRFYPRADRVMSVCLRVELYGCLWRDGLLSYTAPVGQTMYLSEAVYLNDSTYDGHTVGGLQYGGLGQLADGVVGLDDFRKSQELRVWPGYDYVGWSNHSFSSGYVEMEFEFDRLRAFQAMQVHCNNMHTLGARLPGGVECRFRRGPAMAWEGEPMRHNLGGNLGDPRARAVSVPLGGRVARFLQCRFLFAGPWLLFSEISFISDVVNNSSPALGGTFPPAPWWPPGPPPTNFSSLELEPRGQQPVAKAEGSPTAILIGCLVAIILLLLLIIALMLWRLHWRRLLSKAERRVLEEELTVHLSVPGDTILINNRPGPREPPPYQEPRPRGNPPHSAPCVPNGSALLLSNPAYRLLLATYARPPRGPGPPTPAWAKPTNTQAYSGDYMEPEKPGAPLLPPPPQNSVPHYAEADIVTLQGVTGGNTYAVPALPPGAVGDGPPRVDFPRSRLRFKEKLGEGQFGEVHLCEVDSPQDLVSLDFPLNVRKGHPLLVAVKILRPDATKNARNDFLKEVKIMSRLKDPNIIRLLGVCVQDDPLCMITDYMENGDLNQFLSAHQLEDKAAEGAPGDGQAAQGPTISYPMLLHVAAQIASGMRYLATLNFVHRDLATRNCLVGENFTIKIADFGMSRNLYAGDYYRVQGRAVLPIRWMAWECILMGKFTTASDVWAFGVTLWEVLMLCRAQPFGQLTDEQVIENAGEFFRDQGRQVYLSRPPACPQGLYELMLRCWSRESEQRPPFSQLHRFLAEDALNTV
Calls of active or inactive are those of the source.

Use the examples below as a reference point.
COc1cc2ncnc(Nc3ccc(O)cc3)c2cc1OC | > 30 µM (inactive)
O=C(NC[C@H](O)CO)c1ccncc1Nc1ccc(I)cc1F | > 30 µM (inactive)
CCN(CCCOc1ccc2c(Nc3cc(CC(=O)Nc4cccc(F)c4)n[nH]3)ncnc2c1)CCOP(=O)(O)O | > 30 µM (inactive)
COCCN1CCN(Cc2ccc(-c3n[nH]c4c3C(=O)c3c(NC(=O)NN5CCOCC5)cccc3-4)cc2)CC1 | > 30 µM (inactive)
Cn1c(=O)n(-c2ccc(C(C)(C)C#N)cc2)c2c3cc(-c4cnc5ccccc5c4)ccc3ncc21 | > 30 µM (inactive)

Query: Determine from records and report Kd for `Cc1ccc(C(=O)Nc2ccc(Oc3cc4cnn(C)c4cc3-c3cn[nH]c3)c(F)c2)c(=O)n1-c1ccc(F)cc1`
Reply: 0.174 µM (active)

Query: Determine from records and report Kd for `CC[C@@](C)(Nc1ccnc(-c2c[nH]c3ncccc23)n1)C(=O)NCC(F)(F)F`
Reply: > 30 µM (inactive)

Query: Determine from records and report Kd for `CCN1CCN(Cc2ccc(Nc3ncc(F)c(-c4cc(F)c5nc(C)n(C(C)C)c5c4)n3)nc2)CC1`
Reply: > 30 µM (inactive)

Query: Determine from records and report Kd for `O[C@H]1CC[C@H](Nc2ncc3nc(Nc4c(F)cc(F)cc4F)n([C@H]4CCOC4)c3n2)CC1`
Reply: > 30 µM (inactive)

Query: Determine from records and report Kd for `C=CCN(/C=C1/C(=O)O[C@H](COC)[C@@]2(C)C1=C(O)C(=O)C1=C2[C@H](OC(C)=O)C[C@]2(C)C(=O)CC[C@@H]12)CC=C`
Reply: > 30 µM (inactive)
